B1: library; a variant is named by its letters at N, in order (parent)
chain: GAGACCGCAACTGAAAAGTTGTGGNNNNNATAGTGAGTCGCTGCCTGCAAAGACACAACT

Variants of: B1
Assay: ligation selection enrichment (abundance after / before one-round selection) (fold); higher = more template-directed ligation activity
Conditions: with T7Psub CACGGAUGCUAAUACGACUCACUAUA; MgCl2 25 mM; 42 °C; 4 h; pH 8.5
valueKind: ligation selection enrichment

Look over these answered cases.
1. GACGG ... 0.409
2. CTTGA ... 2.2

Incoming: Find the recorded ligation selection enrichment belonging to `TTCGA` and report it.
Outgoing: 2.1

Incoming: Find the recorded ligation selection enrichment belonging to `CAGGA` and report it.
Outgoing: 0.231
